assay: activity coefficient (dimensionless); of the first substance listed, at infinite dilution; xn = mol fraction of the nth substance listed; conditions: 362.65 K; 101 kPa; Liquid; Chromatography; x1 = 0
Decide by activity coefficient: equal to or exceeding 2 means Condition met, less means Condition not met.

Molecule	Class
C#CCCCCC [1-heptyne] + CCCCn1cc[n+](C)c1.O=S(=O)([N-]S(=O)(=O)C(F)(F)C(F)(F)F)C(F)(F)C(F)(F)F	Condition met
c1ccccc1 [benzene] + CCCCn1cc[n+](C)c1.O=S(=O)([N-]S(=O)(=O)C(F)(F)C(F)(F)F)C(F)(F)C(F)(F)F	Condition not met
CCCCCCC [heptane] + CCCCn1cc[n+](C)c1.O=S(=O)([N-]S(=O)(=O)C(F)(F)C(F)(F)F)C(F)(F)C(F)(F)F	Condition met
CCN(CC)CC [triethylamine] + CCCCn1cc[n+](C)c1.O=S(=O)([N-]S(=O)(=O)C(F)(F)C(F)(F)F)C(F)(F)C(F)(F)F	Condition met
CC(C)CO [2-methyl-1-propanol] + CCCCn1cc[n+](C)c1.O=S(=O)([N-]S(=O)(=O)C(F)(F)C(F)(F)F)C(F)(F)C(F)(F)F	Condition not met
CC1CCCC1 [methylcyclopentane] + CCCCn1cc[n+](C)c1.O=S(=O)([N-]S(=O)(=O)C(F)(F)C(F)(F)F)C(F)(F)C(F)(F)F	Condition met
C1CCCCCC1 [cycloheptane] + CCCCn1cc[n+](C)c1.O=S(=O)([N-]S(=O)(=O)C(F)(F)C(F)(F)F)C(F)(F)C(F)(F)F	Condition met
CCCCCCCCCCC [undecane] + CCCCn1cc[n+](C)c1.O=S(=O)([N-]S(=O)(=O)C(F)(F)C(F)(F)F)C(F)(F)C(F)(F)F	Condition met
CO [methanol] + CCCCn1cc[n+](C)c1.O=S(=O)([N-]S(=O)(=O)C(F)(F)C(F)(F)F)C(F)(F)C(F)(F)F	Condition not met
CC(C)O [propan-2-ol] + CCCCn1cc[n+](C)c1.O=S(=O)([N-]S(=O)(=O)C(F)(F)C(F)(F)F)C(F)(F)C(F)(F)F	Condition not met
OCC(F)(F)F [2,2,2-trifluoroethanol] + CCCCn1cc[n+](C)c1.O=S(=O)([N-]S(=O)(=O)C(F)(F)C(F)(F)F)C(F)(F)C(F)(F)F	Condition not met
CCCCO [butan-1-ol] + CCCCn1cc[n+](C)c1.O=S(=O)([N-]S(=O)(=O)C(F)(F)C(F)(F)F)C(F)(F)C(F)(F)F	Condition not met
CCCCCCCCCC [decane] + CCCCn1cc[n+](C)c1.O=S(=O)([N-]S(=O)(=O)C(F)(F)C(F)(F)F)C(F)(F)C(F)(F)F	Condition met
CCC(=O)CC [pentan-3-one] + CCCCn1cc[n+](C)c1.O=S(=O)([N-]S(=O)(=O)C(F)(F)C(F)(F)F)C(F)(F)C(F)(F)F	Condition not met
CC(C)CC(C)(C)C [2,2,4-trimethylpentane] + CCCCn1cc[n+](C)c1.O=S(=O)([N-]S(=O)(=O)C(F)(F)C(F)(F)F)C(F)(F)C(F)(F)F	Condition met
CCc1ccccc1 [ethylbenzene] + CCCCn1cc[n+](C)c1.O=S(=O)([N-]S(=O)(=O)C(F)(F)C(F)(F)F)C(F)(F)C(F)(F)F	Condition met
CC1CCCCC1 [methylcyclohexane] + CCCCn1cc[n+](C)c1.O=S(=O)([N-]S(=O)(=O)C(F)(F)C(F)(F)F)C(F)(F)C(F)(F)F	Condition met
